Target: T1, human CTGF (Homo sapiens, UniProt P29279, H83D)
T1 construct: purchased Creative Biomart
T1 sequence (P29279 with tags, fused parts or gaps H83D): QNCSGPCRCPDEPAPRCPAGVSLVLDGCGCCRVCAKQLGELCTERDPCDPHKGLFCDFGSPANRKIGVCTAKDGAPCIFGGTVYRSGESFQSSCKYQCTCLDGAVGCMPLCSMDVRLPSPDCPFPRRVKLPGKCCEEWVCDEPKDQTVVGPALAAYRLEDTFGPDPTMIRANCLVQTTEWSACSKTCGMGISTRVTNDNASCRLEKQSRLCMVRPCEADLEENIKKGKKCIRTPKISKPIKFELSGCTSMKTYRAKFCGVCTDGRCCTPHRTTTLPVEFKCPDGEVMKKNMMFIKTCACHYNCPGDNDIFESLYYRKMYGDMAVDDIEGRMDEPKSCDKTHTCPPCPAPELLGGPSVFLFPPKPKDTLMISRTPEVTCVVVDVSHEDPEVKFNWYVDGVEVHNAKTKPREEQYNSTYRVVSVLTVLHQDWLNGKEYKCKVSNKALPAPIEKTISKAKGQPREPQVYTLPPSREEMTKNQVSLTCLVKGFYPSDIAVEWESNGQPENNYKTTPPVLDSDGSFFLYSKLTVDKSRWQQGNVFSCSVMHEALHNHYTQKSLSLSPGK
Assay: SPR binding kinetics and affinity, human CTGF
Conditions: 25° C., 1:1 binding model
Procedure: Surface plasmon resonance (SPR) was used to measure binding kinetics and affinity of the representative lipocalin muteins disclosed herein. The binding of exemplary lipocalin muteins to human (Creative Biomart), cynomolgus, rat (R&D Systems) and mouse CTGF (Abbexa) was determined by SPR using a Biacore instrument (Cytiva, formerly GE Healthcare). Some targets were fused to a human IgG1 Fc tag, and captured via the anti-human IgG antibody kit, others were directly immobilized. […]
Parameter: human CTGF kon. Scope: all listed entries.
recorded.metric: human CTGF kon (M⁻¹ s⁻¹)

{"columns": ["molecule", "quantitative.result"],
 "data": [
  ["SEQ ID NO: 11: optimized CTGF-binding hNGAL lipocalin mutein (protein, lipocalin mutein) QDSTSDLIPAPPLSKVPLQQNFQDNQFQGKWYVVGLAGNAILREDKQPAKMFATIYELKEDKSYDVTSVRFEAKSCSYTSKTFVPGSQPGEFTAGNIKSAPGQTSTLVRVVSTNYNQHAMVFFKHVSQNRETFVITLYGRTKELTSELKENFIRFSKSLGLPENHIVFPVPIDQCIDG", 44400],
  ["SEQ ID NO: 12: optimized CTGF-binding hNGAL lipocalin mutein (protein, lipocalin mutein) QDSTSDLIPAPPLSKVPLQQNFQDNQFQGKWYVVGLAGNAILREDKYPAKMFATIYELKEDKSYDVTSVRFENKSCVYTIKTFVPGSQPGEFTTGNIKSAPGQTSTLVRVVSTNYNQHAMVFFKHVSQNREFFVITLYGRTKELTSELKENFIRFSKSLGLPENHIVFPVPIDQCIDG", 55600],
  ["SEQ ID NO: 25: parent CTGF-binding hNGAL lipocalin mutein (protein, lipocalin mutein) QDSTSDLIPAPPLSKVPLQQNFQDNQFHGKWYVVGMAGNFRLREDKDPSKMGATIYELKEDKSYNVTQVQFDDKKCLYVIETFVPGSQPGEFTLGAIKSFPGFTSQLVRVVSTNYNQHAMVFFKKVYQNREVFWITLYGRTKELTSELKENFIRFSKSLGLPENHIVFPVPIDQCIDG", 26800],
  ["SEQ ID NO: 9: parent CTGF-binding hNGAL lipocalin mutein (protein, lipocalin mutein) QDSTSDLIPAPPLSKVPLQQNFQDNQFHGKWYVVGLAGNKILRIDKQPAKMFATIYELKEDKSYDVTSVRFEARSCSYTIKTFVPGSQPGEFTAGNIKSAPGQTSTLVRVVSTNYNQHAMVFFKHVSQNRETFVITLYGRTKELTSELKENFIRFSKSLGLPENHIVFPVPIDQCIDG", 79800],
  ["SEQ ID NO: 32: optimized CTGF-binding hNGAL lipocalin mutein (protein, lipocalin mutein) QDSTSDLIPAPPLSKVPLQQNFQDNQFQGKWYVVGWAGNVKLREDKQPFKMSATIYELKEDKSYDVTEVVFEQKKCHYIIKTFVPGSQPGEFTLSPISSSPGLVSHLVRVVSTNYNQHAMVFFKKVHQNREFFWITLYGRTKELTSELKENFIRFSKSLGLPENHIVFPVPIDQCIDG", 109000]
]}
